MEASURED ON: T1, RHPN1, Q8TCX5
T1 sequence (Q8TCX5 508-602, limits assumed, looked up): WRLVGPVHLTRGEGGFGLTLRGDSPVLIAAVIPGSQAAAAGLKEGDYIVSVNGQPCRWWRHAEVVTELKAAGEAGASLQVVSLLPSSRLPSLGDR
TEST: holdup assay
Set-up: key: below the threshold = too weak to quantify, mostly under pKd 3.1 to 4
CONDITIONS: plain residues with an end cap or a label only (N-terminal biotin on a linker: ttds)
OUTCOME MEASURE: pKd
Answer with a bare number; do not write a unit.

The cases that follow already have their pKd on record.
>>> reported("SSLQSLETSV [ATP2B4, P23634]")
4.58
>>> reported("PVRVCEETSL [OTULIN, Q96BN8]")
4.93
>>> reported("EMDRRPATVV [PLCB4, Q15147]")
3.74
>>> reported("RLQRRRETQV [HPV18-E6, P06463]")
3.63

What does the data say about its pKd? Entry: RLPKIKETTV [FRMPD4, Q14CM0] 4.19
